Provenance of the data: ChEMBL document CHEMBL1201862

Entries and their measured AC50 follow.
Test system: INS1
Assay explanation: beta cell apoptosis inhibitors, cytokine rescue, dose response, luminescence, retest (AID 449756);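 further: cell death triggered by IL-1 beta plus TNF-alpha plus IFN-gamma mixture; protective hits raise ATP signal compared with cytokine alone wells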
Assay type: functional, cell-based
Particulars: Rattus norvegicus
Activity calls are given as the source filed them. No stated cut-off is given here; in the data, actives have a measured AC50 and inactives only a lower limit.
Quantity measured: AC50

- Mol smiles: "Cc1nc(NCCc2ccc(S(N)(=O)=O)cc2)c2c(C)c(C)sc2n1"
  Endpoint value: "5.52 µM (active)"
- Mol smiles: "CCN(CC)c1ccc(/C=N/NC(=S)NCc2ccccc2)c(O)c1"
  Endpoint value: "0.712 µM (active)"
- Mol smiles: "Cc1cccc(Nc2nc(NCc3ccco3)c3ccccc3n2)c1"
  Endpoint value: "2.09 µM (active)"
- Mol smiles: "O=C(NCc1cccnc1)C(=O)Nc1nc(C23CC4CC(CC(C4)C2)C3)cs1"
  Endpoint value: "35.3 µM (active)"
- Mol smiles: "C=CCc1c(C)nc(C)nc1N/N=C/c1ccc(N(C)C)cc1"
  Endpoint value: "2.54 µM (active)"
- Mol smiles: "N#Cc1c(N2CCCCC2)nc(N2CCCCC2)c2c1CCN(Cc1ccccc1)C2"
  Endpoint value: "12.7 µM (active)"
- Mol smiles: "Cc1ccc(NC(=O)c2cc(S(=O)(=O)NCCC3=CCCCC3)ccc2F)cc1"
  Endpoint value: "2.96 µM (active)"
